Reference source: patent US20110009420A1

study_target: human histamine H3 receptor (Homo sapiens, UniProt Q9Y5N1)
Construct: expressed in transfected cells
Sequence (Q9Y5N1 whole entry): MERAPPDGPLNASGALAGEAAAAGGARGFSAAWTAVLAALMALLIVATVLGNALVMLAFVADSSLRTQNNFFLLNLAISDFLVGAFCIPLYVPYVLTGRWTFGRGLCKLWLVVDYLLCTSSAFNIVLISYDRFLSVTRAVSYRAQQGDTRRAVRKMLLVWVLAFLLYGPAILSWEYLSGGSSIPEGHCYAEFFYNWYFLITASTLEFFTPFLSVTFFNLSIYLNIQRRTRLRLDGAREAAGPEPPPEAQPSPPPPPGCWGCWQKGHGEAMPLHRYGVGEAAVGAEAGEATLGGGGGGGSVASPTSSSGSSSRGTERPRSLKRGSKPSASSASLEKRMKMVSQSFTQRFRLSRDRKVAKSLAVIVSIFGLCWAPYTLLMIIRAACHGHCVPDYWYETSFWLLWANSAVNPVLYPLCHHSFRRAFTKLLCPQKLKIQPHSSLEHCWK
experimental_details: functional [35S]GTPγS binding assay (antagonist potency, inhibition of RAMHA-stimulated binding)
Assay type: biochemical
Protocol: CHO-cells, stably expressing the human histamine H3 receptor, were harvested and membranes were prepared by threefold homogenization in a HEPES buffer (20 mM HEPES, 0.1-10 mM EDTA; pH 7.4). […] After 2 h incubation at RT with gentle shaking of the plate, the plate was centrifuged at 370 RCF for 10 min and subsequently the radioactivity was counted in a Packard TopCount-NXT. The IC50 values were calculated by non-linear regression analysis using GraphPad Prism.
metric_name: pKi
Note on units: pKi is unitless, being -log10 of a concentration expressed in mol/L.

> print(dat)
                                   molecule                              study.target  test.value
1  O=C(Cc1ccc(-c2ccccc2)cc1)N1CCN(CCCN2CCCCC2)CC1  human histamine H3 receptor (Homo sapiens, UniProt Q9Y5N1)        7.29

Pending molecule:
QUERY: Could you tell me which pKi is on file for O=C(Cc1c[nH]c2ccccc12)N1CCN(CCCN2CCCCC2)CC1 ?
RESULT: 8.00
